- Test system: EKVX NSCLC
- experiment.description: NCI tumour cell line growth inhibition, 48 h
Entries annotated with measured TGI
reported.property: TGI

>>> recorded_measurement("CC(O)[C@H](NC(=O)N[C@@H](CC(N)=O)c1nc(N2CCNCC2)no1)C(=O)O (stereo not given in full)")
"> 100 µM"
>>> recorded_measurement("OCC(O)C(O)C(O)C(O)c1nnc2c(-c3ccccc3)nc3ccccc3n12 (stereo not given)")
"> 100 µM"
>>> recorded_measurement("COc1ccccc1-c1c(C#N)c(N)[nH]c(=S)c1C#N")
"> 100 µM"
>>> recorded_measurement("CCOC(=O)C1=C(OC(OCC)C(CC)[Se]c2ccccc2)CCC1 (stereo not given)")
"91.2 µM"
>>> recorded_measurement("CCc1n[nH]c(=O)n1/N=C(\\C)c1ccccc1")
"> 100 µM"
>>> recorded_measurement("Cc1[nH]c(-c2ccccc2)c2nc(N(C)C)oc(=O)c12")
"> 100 µM"
>>> recorded_measurement("Cc1ccc2ccc(-c3ccccc3)c3c2c1C(=O)c1ccccc1C3=O")
"> 100 µM"
>>> recorded_measurement("CC1(C)OC(=O)C(=C2CCC(C(=O)Nc3cccc(C(F)(F)F)c3)N2)C(=O)O1 (stereo not given)")
"> 100 µM"
>>> recorded_measurement("Cc1c(-c2ccccc2)[nH]c2cn[nH]c(=O)c12")
"> 100 µM"
>>> recorded_measurement("CC1=CCC(C(C)(C)NC(=O)c2ccccc2)C/C1=N/O (stereo not given)")
"> 100 µM"
>>> recorded_measurement("O=C(NCCNCCNC(=O)c1cc(-c2ccccc2)nc2ccccc12)c1cc(-c2ccccc2)nc2ccccc12")
"11.7 µM"
>>> recorded_measurement("Cc1cc(S(N)(=O)=O)c(S/C(=N\\NS(=O)(=O)c2ccccc2)c2ccc(Cl)cc2)cc1Cl")
"> 100 µM"
>>> recorded_measurement("CC(C)(C)OC(=O)N1CCCC1C(=O)NC(c1ccccc1)c1ccccc1 (stereo not given)")
"> 100 µM"
>>> recorded_measurement("O=C1NC2(CCNCC2)Oc2ccccc21")
"> 100 µM"
>>> recorded_measurement("COc1cc(OC)c2c(=O)c3cccc([N+](=O)[O-])c3n(C)c2c1")
"> 100 µM"
>>> recorded_measurement("CCOC(=O)CCC(NC(=O)c1ccc(NC(OC)c2nc3cc(C(F)(F)F)ccc3nc2-c2ccccc2)cc1)C(=O)OCC (stereo not given)")
"33.6 µM"
>>> recorded_measurement("Cc1ccc(-c2cc(-c3ccc(Cl)cc3)nc(/N=C3\\C(=O)N(CN(C)C)c4ccccc43)n2)cc1")
"> 100 µM"
>>> recorded_measurement("COc1ccccc1NC(=O)C1=C(C)NC(C)=C(C(=O)Nc2ccccc2OC)C1c1ccco1")
"> 83.7 µM"
>>> recorded_measurement("COc1ccc(-c2nc(Nc3ccccc3)sc2Cc2sc(Nc3ccccc3)nc2-c2ccc(OC)cc2)cc1")
"> 100 µM"
>>> recorded_measurement("OCC(O)C(O)C(O)c1nn(-c2ccc(F)cc2)c2nc3cc(Cl)c(Cl)cc3nc12 (stereo not given)")
"49.2 µM"
>>> recorded_measurement("O=C(/C=C/c1ccccc1O)c1ccccc1Cl")
"> 100 µM"
>>> recorded_measurement("Cc1nn(C(=O)c2ccncc2)c2c1C(c1ccccc1[N+](=O)[O-])SC(N)=N2 (stereo not given)")
"> 10 µM"
>>> recorded_measurement("CCCCOC/N=C(/N)NC#N")
"> 100 µM"
>>> recorded_measurement("COc1ccc(/C=C/C(=O)c2cc3c(N)c(C(=O)Nc4ccc(OC)cc4)sc3nc2C)cc1")
"> 50 µM"
>>> recorded_measurement("Cc1ccc2nc(NS(=O)(=O)c3cc(C)c(Cl)cc3S)[nH]c2c1")
"> 100 µM"
>>> recorded_measurement("C1CCCN(NC2=NCCO2)CC1")
"> 100 µM"
>>> recorded_measurement("C=CC(=O)Nc1cc2c(Nc3ccc(F)c(Cl)c3)ncnc2cc1C#CC(C)(C)N1CCN(C)CC1")
"4.39 µM"
>>> recorded_measurement("O=[N+]([O-])/C(Cl)=C(/C(Cl)=C(Cl)Cl)N1CCOCC1")
"21.6 µM"
>>> recorded_measurement("Nc1ccccc1C(=O)N=Nc1c(O)[nH]c2ccccc12")
"> 100 µM"
>>> recorded_measurement("C=C1C(=O)O[C@H]2C1C[C@H](O)[C@@]1(C)OC1CC[C@@]1(C)O[C@H]21 (stereo not given in full)")
"38.4 µM"
